So I've got a bunch of molecules here, and I need their viability values.
assay_details: reducers of endogenous Her2 protein level, primary screen, SKBR3 breast tumor cells, AlphaScreen, ATP viability (AID 461);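 note: percent of carrier control wells set as 100% viability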
cond: 18-24 h, measured here: SKBR3 viability, ATP luminescence, at 10 µM
// return numeric value only (unit: %, not printed)

*Q* Any idea what its viability is? The molecule is Cc1ccc(C(=O)N2CCCC(c3nc4c(nnn4Cc4ccccc4)c(=O)[nH]3)C2)cc1 (stereo unspecified)
*A* 80.5

*Q* Any idea what its viability is? The molecule is O=C(NCc1ccc2c(c1)OCO2)c1cc2n(n1)C(C(F)(F)F)CC(c1ccc3c(c1)OCO3)N2 (stereo unspecified)
*A* 98

*Q* Any idea what its viability is? The molecule is CCOC(=O)C1(C)NC(c2ccc(OC)c(OC)c2)C2C(=O)N(CC)C(=O)C21 (stereo unspecified)
*A* 96.5

*Q* Any idea what its viability is? The molecule is COc1ccccc1C(=O)Nc1ccc(N2CCN(S(C)(=O)=O)CC2)cc1
*A* 99.5

*Q* Any idea what its viability is? The molecule is COC(=O)Nc1ccc(S(=O)(=O)N(C)CC(F)(F)C(F)F)cc1
*A* 107

*Q* Any idea what its viability is? The molecule is N#CC(C(=O)c1ccco1)c1ccccn1 (stereo unspecified)
*A* 106
